Biological target: Human cardiac chymase (Homo sapiens, UniProt P23946)
Construct: Human cardiac chymase was purified according to the process of Urata et al; from tissue; host or cells: human heart (cardiac)
Sequence (P23946 22-247): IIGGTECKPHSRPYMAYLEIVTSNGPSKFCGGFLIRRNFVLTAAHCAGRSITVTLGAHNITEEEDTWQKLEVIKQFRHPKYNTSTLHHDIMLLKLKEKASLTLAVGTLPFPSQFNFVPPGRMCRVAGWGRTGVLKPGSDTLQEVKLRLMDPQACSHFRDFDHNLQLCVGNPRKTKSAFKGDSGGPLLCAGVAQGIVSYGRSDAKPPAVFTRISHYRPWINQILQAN
Assay: Inhibitory activity against chymase (Ang I to Ang II conversion, HPLC)
Assay type: biochemical
Conditions: 37° C., pH 7.5, Ang I substrate; read-out: Inhibitory activities against enzymes (IC50), Chymase
pIC50: −log10 of the molar value.
readout-kind: pIC50

Solved entries (count: 5):
[[record]]
smiles_string = "C=CCOC(=O)c1ccc(S(=O)(=O)N2C(=O)CN(c3ccc(C)c(C)c3)C2=O)cc1"
readout_kind = "pIC50"
measurement = 7.57

[[record]]
smiles_string = "O=C(O)COc1ccc(S(=O)(=O)N2C(=O)CN(c3ccccc3)C2=O)cc1"
readout_kind = "pIC50"
measurement = 5.00

[[record]]
smiles_string = "O=C1CN(c2ccc(Cl)cc2)C(=O)N1S(=O)(=O)c1ccc(Cl)cc1"
readout_kind = "pIC50"
measurement = 6.52

[[record]]
smiles_string = "Cc1ccc(N2CC(=O)N(S(=O)(=O)c3ccc(C)c(C)c3)C2=O)cc1C"
readout_kind = "pIC50"
measurement = 7.22

[[record]]
smiles_string = "CC(C)(C)OC(=O)c1cccc(N2CC(=O)N(S(=O)(=O)c3ccc(Cl)cc3)C2=O)c1"
readout_kind = "pIC50"
measurement = 4.82


a. O=C1CN(c2ccccc2)C(=O)N1C(=O)c1ccccc1Cl
b. O=C1CN(c2ccccc2)C(=O)N1C(=O)c1ccc(-c2ccccc2)cc1
Exam item: I'm curious whether a or b has the smaller pIC50 number. Which is it? Selection: enter the item's label.
Marked response: b
(b: 4.85, a: 5.43)
